These entries and their values trace back to paper PMC5540273.

# Tested on: BIKE;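 also: KINOMEscan kinase panel screen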
# Construct: gene BMP2K
# experimentalSetup: concentration: 1 μM, replicates: in singlicate; n = 1
assayEndpoint: %Inh
Kindly format the answer as number then unit.

Problem: Quick one: %Inh for Cn1cc(-c2cnc(N)c3c(-c4ccc5c(c4)CCN5C(=O)Cc4ccccc4)csc23)cn1 ?
Solution: 0%

Problem: I would be grateful if you could share the reported %Inh for Cc1ccccc1CC(=O)N1CCc2cc(-c3cn(C)c4ncnc(N)c34)ccc21 .
Solution: 82%

Problem: # %Inh lookup, item Nc1ncc(-c2ccc3nccc(-c4ccncc4)c3c2)cc1S(=O)(=O)N1CCCCC1
Solution: 14%

Problem: Entry under review: CCOc1nccc(-c2c(-c3ccc(F)cc3)ncn2C2CCNCC2)n1 . Reported %Inh?
Solution: 0%

Problem: Any idea what %Inh was measured for Cc1cccc(Nc2nc(NCCN)ncc2C(N)=O)c1 ?
Solution: 77%
